- Experiment Summary: Validation qHTS assay for inhibitors of Activation Induced Cytidine Deaminase (AID): UDG Counterscreen signal (AID 1347427)
- Recorded Conditions: biochemical UDG counterscreen, fluorescence signal; series mostly up to 115 µM
The source made the active and inactive calls. The call rests on the fitted dose curve; in most records, active means well fitted curve in the direction sought with a large enough effect; inconclusive means small, poorly fitted or top-dose-only effect, or another doubt; inactive means no such curve, though single readings can be large or run the other way.
In this exercise, the only acceptable responses are active, inactive

// return assay outcome for [Li+]
inactive

Consider next the compound N[C@H](C(=O)O)c1cc(O)cc(O)c1 in the same way.
inactive

Please give the result for O=C1Cc2c([nH]c3ccc(Br)cc23)-c2ccccc2N1 too.
inactive

Here is the next compound: CCCN(CCc1ccccc1)C1CCc2c(O)cccc2C1 (stereo not drawn)
inactive

Similarly, Cc1nc2n(c(=O)c1CCN1CCC(c3noc4cc(F)ccc34)CC1)CCCC2O (stereo not drawn) ?
inactive

Try O=C(O)C1CCCNC1 (stereo not drawn) next.
inactive

Same read-out for C=CC1(C)CC(=O)C2(O)C(C)(O1)C(OC(C)=O)C(O)C1C(C)(C)CCC(O)C12C (stereo not drawn) ?
inactive

Now this one: CCC1(O)CC2CN(CCc3c([nH]c4ccccc34)[C@@](C(=O)OC)(c3cc4c(cc3OC)N(C=O)C3[C@]45CCN4CC=C[C@@](CC)([C@@H](OC(C)=O)[C@]3(O)C(=O)OC)[C@H]45)C2)C1 (stereo partly drawn)
inactive

For CC1=C(/C=C/C(C)=C/C=C/C(C)=C\C(=O)O)C(C)(C)CCC1 then?
inactive

Ok, now CCc1ccc2c(-c3cccc(Cl)c3)nc(=O)n(CC)c2n1
inactive

Here is the next compound: CC#CCOC(=O)c1c(C)nc2sc3c(c2c1N)CCC(O)C3 (stereo not drawn)
inactive

Now try CC1=C(C(=O)O)N2C(=O)[C@@H](NC(=O)C(N)C3=CCC=CC3)[C@H]2SC1 (stereo partly drawn) .
inactive

Please do the same for CC(=O)SC1CC2=CC(=O)CC[C@]2(C)C2CC[C@@]3(C)C(CC[C@@]34CCC(=O)O4)C12 (stereo partly drawn) as well.
inactive

What about N=C(N)c1ccccc1 ?
inactive

What about this compound? O=C1NC(=O)c2cc(Nc3ccccc3)c(Nc3ccccc3)cc21
inactive

NC(N)=NC(N)=Nc1cccc(Cl)c1 ?
inactive

Next compound up: NC(N)=[N+]1CCc2ccccc2C1
inactive

Cool, now CNC(=O)c1cc2c(cn1)[nH]c1ccccc12
inactive

// repeat for O=c1ccc2c(OCCCCc3ccccc3)c3ccoc3cc2o1 and report
inactive

And the next one, CC(C)Cn1c(=O)n(C)c(=O)c2[nH]cnc21 ?
inactive

Now give it for N#C/C(=C\c1ccc(O)c(O)c1)C(=O)NCCc1ccccc1 too.
inactive

What about COc1ccc(NC(=O)c2ccc(-c3ccc(-c4noc(C)n4)cc3C)cc2)cc1N1CCN(C)CC1 ?
inactive

Subsequent entry: CC1CNCCN1S(=O)(=O)c1cccc2cnccc12 (stereo not drawn)
inactive

What about this compound? O=C(O)C1=CCNCC1
inactive

Subsequent entry: CN[C@H](CC(=O)O)C(=O)O
inactive

Same question, Cc1cccc(C)c1OCC(N)C(C)C (stereo not drawn) this time
inactive

Same question, NCCS(=O)O this time
inactive

Now try Cn1c(=O)c2[nH]c(C3CCCC3)nc2n(C)c1=O .
inactive

# iterate: CC(N)(C(=O)O)c1ccc(C(=O)O)cc1 (stereo not drawn)
inactive

Similarly, C=C1C[C@@]23CC[C@H]4[C@@](C)(CCC[C@@]4(C)C(=O)O)[C@@H]2CC[C@]1(O)C3 ?
inactive

Another compound: N=C(N)c1ccc(N)cc1
inactive

Likewise for C=CC[C@H](N)C(=O)O ?
inactive

Repeat for the following compound: COC(=O)C(N)Cc1ccc(Cl)cc1 (stereo not drawn)
inactive

Another compound: O=C(O)C1=CC(=C(c2ccc(O)c(C(=O)O)c2)c2ccc(O)c(C(=O)O)c2)C=CC1=O
active

CNCCc1cnc(CCC(c2ccccc2)c2ccccc2)[nH]1 ?
inactive

Okay, and CCCCCCCCCCCCCCSCC(=O)O ?
inactive

Request: CCCCCCCC/C=C\CCCCCCCC(=O)NCCc1ccc(O)c(O)c1
inactive

Same lookup for CN1Cc2sccc2C(c2ccc(O)c(O)c2)C1 (stereo not drawn) , please.
inactive
